Source listed as patent EP0556482B1.

Target: prolyl endopeptidase derived from human placenta (Homo sapiens)
Sequence (P48147 whole entry): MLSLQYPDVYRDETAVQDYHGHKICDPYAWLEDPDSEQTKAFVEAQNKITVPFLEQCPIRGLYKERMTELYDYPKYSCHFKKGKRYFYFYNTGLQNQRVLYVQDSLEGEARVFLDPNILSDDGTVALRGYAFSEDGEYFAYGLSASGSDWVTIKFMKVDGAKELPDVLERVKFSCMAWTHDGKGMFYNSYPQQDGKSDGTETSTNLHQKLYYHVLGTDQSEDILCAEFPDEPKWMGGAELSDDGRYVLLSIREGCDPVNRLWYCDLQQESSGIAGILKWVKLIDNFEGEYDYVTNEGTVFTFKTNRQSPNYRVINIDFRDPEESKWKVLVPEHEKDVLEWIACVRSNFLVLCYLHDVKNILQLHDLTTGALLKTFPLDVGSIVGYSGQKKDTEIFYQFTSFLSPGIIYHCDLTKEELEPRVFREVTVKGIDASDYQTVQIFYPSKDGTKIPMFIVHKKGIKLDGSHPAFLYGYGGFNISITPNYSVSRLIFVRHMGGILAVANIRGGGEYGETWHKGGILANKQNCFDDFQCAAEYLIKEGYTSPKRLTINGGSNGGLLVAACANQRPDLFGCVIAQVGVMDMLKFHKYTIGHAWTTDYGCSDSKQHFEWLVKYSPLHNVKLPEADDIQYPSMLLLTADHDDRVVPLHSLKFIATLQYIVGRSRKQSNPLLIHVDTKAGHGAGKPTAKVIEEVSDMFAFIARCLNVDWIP
Test: Prolyl endopeptidase inhibitive activity, human placenta enzyme (fluorometric, Z-Gly-Pro-7-AMC substrate)
Type: biochemical
Parameters: obtaining a supernatant, from which microsome fractions had been removed, as a prolyl endopeptidase fraction; from tissue; host or cells: human placenta, cytosol fraction (104,000 x g supernatant)
pIC50: −log10 of the molar value.
measurement-kind: pIC50

> print(dat)
                                   compound  measurement.kind  result
1  CN[C@@H]1C[C@H]2O[C@@](C)([C@@H]1OC)n1c3ccccc3c3c4c(c5c6ccccc6n2c5c31)C(=O)NC4 [Staurosporine]             pIC50  < 3.97
